Origin of measurements: the RNAGym collection of RNA variant scans (doi:10.7554/elife.80360)

B1: Twister Ribozyme (parent)
chain: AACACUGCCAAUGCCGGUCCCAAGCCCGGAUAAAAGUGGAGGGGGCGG

- Variants of: B1
- experimental-protocol: self-cleavage, relative activity (ratio to wild type); higher = more cleavage; co-transcriptional
Think of 0.1 as a floor: if self-cleavage stands on it or above, it is yes (1); beneath it, no (0).

*Q* Form field: self-cleavage at least 0.1? Entry: C5U C19U
*A* yes (1)

*Q* Dear colleague, could you confirm whether U6A G13U has self-cleavage at or above 0.1?
*A* yes (1)

*Q* Textbook exercise: given the entry U6G C8U , state whether its self-cleavage is greater than or equal to 0.1.
*A* yes (1)

*Q* Is self-cleavage for C3A G44U at or above 0.1?
*A* yes (1)

*Q* Please tell me: is the variant C8G C26G at or over 0.1 in terms of self-cleavage?
*A* yes (1)

*Q* Quick check: does C9U C26U have self-cleavage greater than or equal to 0.1?
*A* no (0)

*Q* Hello, I need to know if A4G G44C has measured self-cleavage not below 0.1. Thanks!
*A* yes (1)

*Q* Is self-cleavage for G24A U37G at or above 0.1?
*A* no (0)

*Q* Evaluate G29A A40G : self-cleavage at minimum 0.1?
*A* yes (1)

*Q* Decide: self-cleavage of G7C G45A >= 0.1?
*A* no (0)

*Q* Could you tell me if the measured self-cleavage of A4U G13U reaches 0.1 or more?
*A* no (0)

*Q* API: above_or_equal(metric=self-cleavage, cutoff=0.1) for item A34G G43C
*A* yes (1)

*Q* // inclusive: self-cleavage at least 0.1? input: A23C G42U
*A* no (0)

*Q* Evaluate A10U A11C : self-cleavage at minimum 0.1?
*A* yes (1)

*Q* Item G44A C46A with self-cleavage of 0.1 or above?
*A* yes (1)

*Q* Dear colleague, could you confirm whether A11G U37C has self-cleavage at or above 0.1?
*A* yes (1)

*Q* Could you please find out whether U12G A22C has self-cleavage that meets 0.1 or exceeds it?
*A* yes (1)

*Q* Does self-cleavage meet or surpass 0.1 for A4G A33C ?
*A* yes (1)

*Q* Could you please find out whether C19A G38U has self-cleavage that meets 0.1 or exceeds it?
*A* yes (1)

*Q* Form field: self-cleavage at least 0.1? Entry: A1U U12C
*A* no (0)

*Q* Kindly determine if self-cleavage recorded for A30C G41C is above or exactly 0.1.
*A* yes (1)

*Q* State whether the measured self-cleavage reaches 0.1, counting equality as reaching it, for A23G G44U
*A* yes (1)

*Q* Is self-cleavage for U6A C19U at or above 0.1?
*A* yes (1)

*Q* Confirm if self-cleavage reported for the variant A33G G38U is 0.1 or above.
*A* yes (1)

*Q* Does the reported self-cleavage for G36U G42A fall at or above the 0.1 mark?
*A* yes (1)

*Q* Could you tell me if the measured self-cleavage of A35U C46G reaches 0.1 or more?
*A* yes (1)

*Q* Does the reported self-cleavage for G39U G41C fall at or above the 0.1 mark?
*A* yes (1)

*Q* Given C3U U6A , state whether its self-cleavage is at least 0.1.
*A* yes (1)

*Q* Item C14A G16C with self-cleavage of 0.1 or above?
*A* no (0)

*Q* Check if self-cleavage >= 0.1 (inclusive). Item: C3U A23U
*A* yes (1)

*Q* Decide: is the reported value of self-cleavage for G13C U18A equal to or greater than 0.1?
*A* no (0)

*Q* Determine whether this variant has self-cleavage no lower than 0.1: A11G A35G
*A* yes (1)

*Q* // inclusive: self-cleavage at least 0.1? input: A32C G42U
*A* yes (1)

*Q* hey, is self-cleavage for this one >= 0.1? G44A G47A
*A* yes (1)

*Q* Form field: self-cleavage at least 0.1? Entry: C25G G38A
*A* no (0)

*Q* Could you tell me if the measured self-cleavage of C5U G29U reaches 0.1 or more?
*A* yes (1)

*Q* Confirm if self-cleavage reported for the variant C21G C46U is 0.1 or above.
*A* no (0)

*Q* Has G24C U37G a recorded self-cleavage greater than or equal to 0.1?
*A* yes (1)

*Q* Dear colleague, could you confirm whether C15G A23C has self-cleavage at or above 0.1?
*A* yes (1)

*Q* Please check the record G7C U31A and state if its self-cleavage is at or above 0.1.
*A* no (0)

*Q* Decide: self-cleavage of U31A G42C >= 0.1?
*A* yes (1)

*Q* Textbook exercise: given the entry C14G U31G , state whether its self-cleavage is greater than or equal to 0.1.
*A* yes (1)

*Q* Can C19A G39C be said to have self-cleavage at or above 0.1?
*A* yes (1)

*Q* Quick check, self-cleavage >= 0.1? G13U G45C
*A* yes (1)

*Q* Is the recorded value of self-cleavage equal to or greater than 0.1 for this variant? A23U U31G
*A* yes (1)

*Q* I'd appreciate it if you could say whether G24A G28C has self-cleavage at least equal to 0.1.
*A* no (0)

*Q* State whether the measured self-cleavage reaches 0.1, counting equality as reaching it, for C15G A40U
*A* no (0)

*Q* Does the variant G16C C26U have recorded self-cleavage that is 0.1 or more?
*A* yes (1)

*Q* Decide: is the reported value of self-cleavage for C26G G41U equal to or greater than 0.1?
*A* no (0)

*Q* Could you verify whether the entry G13U C27G shows self-cleavage of no less than 0.1?
*A* no (0)

*Q* Entry A4U C19G : is its self-cleavage no less than 0.1?
*A* no (0)

*Q* # bool: self-cleavage of U6C A35U >= 0.1
*A* yes (1)

*Q* Hi team, for C25A G44C , is the recorded self-cleavage at or above 0.1?
*A* yes (1)

*Q* Could you verify whether the entry C25A shows self-cleavage of no less than 0.1?
*A* yes (1)

*Q* Does the reported self-cleavage for G7C G29U fall at or above the 0.1 mark?
*A* no (0)

*Q* Does the variant C25A G42A have recorded self-cleavage that is 0.1 or more?
*A* no (0)

*Q* Dear colleague, could you confirm whether C3U G16A has self-cleavage at or above 0.1?
*A* yes (1)

*Q* Reported self-cleavage at or above 0.1? U31A A35G
*A* yes (1)

*Q* Decide: self-cleavage of A1C A23U >= 0.1?
*A* yes (1)

*Q* Item C14U C25A with self-cleavage of 0.1 or above?
*A* yes (1)

*Q* Tell me whether self-cleavage is at least 0.1 here: G13C A33U
*A* yes (1)

*Q* Item U18G A40C with self-cleavage of 0.1 or above?
*A* no (0)

*Q* API: above_or_equal(metric=self-cleavage, cutoff=0.1) for item A1C G43U
*A* yes (1)

*Q* Threshold query (self-cleavage >= 0.1) on U18A C46U
*A* yes (1)

*Q* Kindly determine if self-cleavage recorded for C21A U37C is above or exactly 0.1.
*A* yes (1)

*Q* Given U6C G45A , state whether its self-cleavage is at least 0.1.
*A* yes (1)

*Q* Entry G13A G45A : is its self-cleavage no less than 0.1?
*A* yes (1)

*Q* Hi team, for G17A G36A , is the recorded self-cleavage at or above 0.1?
*A* yes (1)

*Q* Is self-cleavage for G36A G44U at or above 0.1?
*A* yes (1)

*Q* Would you say G28U G47U shows self-cleavage at minimum 0.1?
*A* yes (1)

*Q* Is self-cleavage for C15U U37A at or above 0.1?
*A* yes (1)

*Q* Determine whether this variant has self-cleavage no lower than 0.1: A10U G43A
*A* yes (1)

*Q* Identify whether the reported self-cleavage of the following variant is 0.1 or greater: G7C A33U
*A* no (0)

*Q* Please check the record G13A G29A and state if its self-cleavage is at or above 0.1.
*A* yes (1)

*Q* Say whether U18C A30C shows self-cleavage of 0.1 or more.
*A* no (0)

*Q* Hello, I need to know if G16U G44C has measured self-cleavage not below 0.1. Thanks!
*A* yes (1)

*Q* I'd appreciate it if you could say whether G7C G24C has self-cleavage at least equal to 0.1.
*A* no (0)

*Q* Given the entry U6C G45C , answer whether its self-cleavage meets or surpasses 0.1.
*A* yes (1)

*Q* Is self-cleavage at least 0.1? Consider G43C C46U
*A* yes (1)

*Q* Given A30C G36C , state whether its self-cleavage is at least 0.1.
*A* no (0)

*Q* Determine whether this variant has self-cleavage no lower than 0.1: A23U A30C
*A* yes (1)

*Q* Decide: is the reported value of self-cleavage for G7A G48A equal to or greater than 0.1?
*A* yes (1)

*Q* Determine whether measured self-cleavage meets or exceeds 0.1 for C21U U31A
*A* yes (1)

*Q* Identify whether the reported self-cleavage of the following variant is 0.1 or greater: G29U
*A* yes (1)

*Q* Would you say G16C A22U shows self-cleavage at minimum 0.1?
*A* yes (1)

*Q* Is self-cleavage for G13A U18A at or above 0.1?
*A* no (0)

*Q* In plain terms: is recorded self-cleavage at least 0.1 for C15G G16U ?
*A* yes (1)
